# Target Desc: KRAS WT (Homo sapiens)
# Sequence (P01116 with tags, fused parts or gaps isoform P01116-2): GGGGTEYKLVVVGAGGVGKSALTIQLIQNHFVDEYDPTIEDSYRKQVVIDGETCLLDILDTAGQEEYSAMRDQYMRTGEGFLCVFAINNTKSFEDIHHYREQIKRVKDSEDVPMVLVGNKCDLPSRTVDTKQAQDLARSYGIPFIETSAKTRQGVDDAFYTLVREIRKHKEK
# Assay Summary: SOS-catalyzed nucleotide exchange assay, KRAS WT (Procedure A)
# Assay type: biochemical
# Reported Conditions: GNE
pIC50: −log10 of the molar value.
Measured Metric: pIC50

compound="F/C=C1\\CN2CCC[C@@]2(COc2nc(N3C[C@H]4CC[C@@H](C3)N4)c3c(n2)C2(CC2)c2c-3ccnc2-c2c(C3CC3)c(Cl)cc3[nH]ncc23)C1 (single isomer, unassigned)" censoring_qualifier== recorded_measurement=6.11
compound=FC(F)c1c(Cl)cc2[nH]ncc2c1-c1nccc2c1sc1nc(OC[C@@]34CCCN3C[C@H](F)C4)nc(N3C[C@H]4CC[C@@H](C3)N4)c12 censoring_qualifier== recorded_measurement=5.02
compound=Cn1c2nc(OC[C@@]34CCCN3C[C@H](F)C4)nc(N3C[C@H]4CC[C@@H](C3)N4)c2c2ccnc(-c3ccc(F)c4sc(N)c(C#N)c34)c21 censoring_qualifier=< recorded_measurement=4.95
compound="Cc1cc2[nH]ncc2c(-c2nccc3c4c(N5C[C@H]6CC[C@@H](C5)N6)nc(OC[C@@]56CCCN5C[C@H](F)C6)nc4n(C)c23)c1C(F)F (single isomer, unassigned)" censoring_qualifier== recorded_measurement=5.03
compound=FC(F)(F)C1(COc2nc(N3C[C@H]4CC[C@@H](C3)N4)c3c(n2)sc2c(-c4c(C5CC5)c(Cl)cc5[nH]ncc45)nccc23)CCOCC1 censoring_qualifier== recorded_measurement=5.20
compound=C#Cc1cccc2cc3[nH]ncc3c(-c3nccc4c3sc3nc(OC[C@@]56CCCN5C[C@H](F)C6)nc(N5C[C@H]6CC[C@@H](C5)N6)c34)c12 censoring_qualifier== recorded_measurement=6.83
compound="Cc1cc2[nH]ncc2c(-c2nccc3c2sc2nc(OC[C@@]45CCCN4C[C@H](F)C5)nc(N4C[C@H]5CC[C@@H](C4)N5CC(C)O)c23)c1C(F)(F)F (some centres unmarked)" censoring_qualifier== recorded_measurement=5.96
compound=Cc1cc2[nH]ncc2c(-c2nccc3c2sc2nc(OCC45COC(CF)(C4)C5)nc(N4C[C@H]5CC[C@@H](C4)N5)c23)c1C(F)(F)F censoring_qualifier=< recorded_measurement=4.95
compound=C#Cc1c(F)ccc2cc3[nH]ncc3c(-c3nccc4c3sc3nc(OC[C@]5(CN6CCC7(CC6)CC(Cc6cn(C)nn6)C7)CC5(F)F)nc(N5C[C@H]6CC[C@@H](C5)N6)c34)c12 censoring_qualifier== recorded_measurement=6.06
compound=C#Cc1c(F)ccc2cc3[nH]ncc3c(-c3nccc4c3sc3nc(OC[C@]5(CN6CCC(CCc7cn(C)nn7)CC6)CC5(F)F)nc(N5C[C@H]6CC[C@@H](C5)N6)c34)c12 censoring_qualifier== recorded_measurement=6.55
compound=C#Cc1c(F)ccc2cc3[nH]ncc3c(-c3nccc4c3sc3nc(OC[C@@]56CCCN5C[C@H](F)C6)nc(N5C[C@H]6CC[C@@H](C5)N6CCCC#N)c34)c12 censoring_qualifier== recorded_measurement=6.13
compound=Cc1cc2[nH]ncc2c(-c2nccc3c2sc2nc(OC[C@@]45CCCN4C[C@H](F)C5)nc(NCC4(N(C)C)CCC4)c23)c1C(F)(F)F censoring_qualifier=< recorded_measurement=4.95
compound=C#Cc1c(F)ccc2cc3[nH]ncc3c(-c3nccc4c3sc3nc(OC[C@]5(CO)CC5(F)F)nc(N5C[C@H]6CC[C@@H](C5)N6)c34)c12 censoring_qualifier=< recorded_measurement=4.96
compound=C#Cc1c(F)ccc2cc3[nH]ncc3c(-c3nccc4c3sc3nc(OC[C@]5(CN6CCC(COC)CC6)CC5(F)F)nc(N5C[C@H]6CC[C@@H](C5)N6)c34)c12 censoring_qualifier== recorded_measurement=5.76
compound=C#Cc1c(F)ccc2cc(N)nc(-c3nccc4c5c(N6C[C@H]7CC[C@@H](C6)N7)nc(OC[C@@]67CCCN6C[C@H](F)C7)nc5n(C)c34)c12 censoring_qualifier=< recorded_measurement=4.95
compound=Cc1cc2[nH]ncc2c(-c2nccc3c2sc2nc(OC[C@@]45CCCN4C[C@H](F)C5)nc(N4[C@@H]5CC[C@H]4CN(C)C5)c23)c1C(F)(F)F censoring_qualifier=< recorded_measurement=4.95
compound=C#Cc1c(F)ccc2cc3[nH]ncc3c(-c3nccc4c3sc3nc(OC[C@]5(CN6CC7(CC(F)C7)C6)CC5(F)F)nc(N5C[C@H]6CC[C@@H](C5)N6)c34)c12 censoring_qualifier== recorded_measurement=5.97

---

# Target Desc: KRAS G13D (Homo sapiens, UniProt P01116, G13D)
# Sequence (P01116 with tags, fused parts or gaps isoform P01116-2 G13D): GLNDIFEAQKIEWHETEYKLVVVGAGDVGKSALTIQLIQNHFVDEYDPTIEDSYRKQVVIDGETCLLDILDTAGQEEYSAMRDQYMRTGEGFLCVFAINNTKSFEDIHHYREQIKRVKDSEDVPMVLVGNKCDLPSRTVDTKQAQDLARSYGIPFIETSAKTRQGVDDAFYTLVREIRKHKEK
# Assay Summary: SOS-catalyzed nucleotide exchange assay, KRAS G13D (Procedure A)
# Reported Conditions: GNE
Measured Metric: IC50 (nM)

molecule=Cc1cc2[nH]ncc2c(-c2nccc3c2sc2nc(OC[C@@]45CCCN4C[C@H](F)C5)nc(N4[C@@H]5CC[C@H]4CN(C)C5)c23)c1C(F)(F)F censoring_qualifier=> recorded_measurement=11100
molecule=Cc1cc2[nH]nc(C#N)c2c(-c2nccc3c2sc2nc(OC[C@@]45CCCN4C[C@H](F)C5)nc(N4C[C@H]5CC[C@@H](C4)N5)c23)c1C(F)(F)F censoring_qualifier== recorded_measurement=1050
molecule=Cc1cc2[nH]ncc2c(-c2nccc3c2sc2nc(OC[C@@]45CCCN4C[C@H](F)C5)nc(N4C[C@H]5CC[C@@](C)(C4)N5)c23)c1C(F)(F)F censoring_qualifier== recorded_measurement=1810
molecule=Cc1cc2[nH]ncc2c(-c2nccc3c2sc2nc(OCC4(S(C)(=O)=O)CC4)nc(N4C[C@H]5CC[C@@H](C4)N5)c23)c1C(F)(F)F censoring_qualifier=> recorded_measurement=11100
molecule=Cc1cc2[nH]ncc2c(-c2nccc3c2sc2nc(OC[C@@]45CCCN4C[C@H](F)C5)nc(N4C[C@H]5CC[C@@H](C4)N5)c23)c1C(F)(F)F censoring_qualifier== recorded_measurement=723
molecule="OC1C2CCCC1(COc1nc(N3C[C@H]4CC[C@@H](C3)N4)c3c(n1)sc1c(-c4c(C5CC5)c(Cl)cc5[nH]ncc45)nccc13)CC2 (stereo partly drawn)" censoring_qualifier=> recorded_measurement=11100
molecule=CC12CC(COc3nc(N4C[C@H]5CC[C@@H](C4)N5)c4c(n3)sc3c(-c5c(C6CC6)c(Cl)cc6[nH]ncc56)nccc34)(CO1)C2 censoring_qualifier=> recorded_measurement=11100
molecule=Cn1c2nc(OC[C@@]34CCCN3C[C@H](F)C4)nc(N3C[C@H]4CC[C@@H](C3)N4)c2c2ccnc(-c3ccc(F)c4sc(N)c(C#N)c34)c21 censoring_qualifier== recorded_measurement=349
molecule=Cc1cc2[nH]ncc2c(-c2nccc3c2sc2nc(OCC4(C)CS(=O)(=O)C4)nc(N4C[C@H]5CC[C@@H](C4)N5)c23)c1C(F)(F)F censoring_qualifier=> recorded_measurement=11100
molecule=Cc1cc2[nH]ncc2c(-c2nccc3c2sc2nc(OC[C@@]45CCCN4C[C@H](F)C5)nc(N4CC5CC(C4)N5)c23)c1C(F)(F)F censoring_qualifier== recorded_measurement=323
molecule=CN(C)C[C@@]1(COc2nc(N3C[C@H]4CC[C@@H](C3)N4)c3c(n2)sc2c(-c4c(C5CC5)c(Cl)cc5[nH]ncc45)nccc23)CC1(F)F censoring_qualifier== recorded_measurement=486
molecule=Nc1nc2c(-c3nccc4c3sc3nc(OC[C@@]56CCCN5C[C@H](F)C6)nc(N5C[C@H]6CC[C@@H](C5)N6)c34)c(F)cc(F)c2o1 censoring_qualifier=> recorded_measurement=11100
molecule=Cc1cc2[nH]ncc2c(-c2nccc3c2sc2nc(OC[C@@]45CCCN4C[C@H](F)C5)nc(N4C[C@@H]5C[C@H]4CN5)c23)c1C(F)(F)F censoring_qualifier== recorded_measurement=1210
molecule="Cc1cc2[nH]nc(C#N)c2c(-c2nccc3c4c(N5C[C@H]6CC[C@@H](C5)N6)nc(OC[C@@]56CCCN5C[C@H](F)C6)nc4n(C)c23)c1C(F)(F)F (single isomer, unassigned)" censoring_qualifier== recorded_measurement=2360
molecule="Cc1cc2[nH]ncc2c(-c2nccc3c2sc2nc(OC[C@H]4C[C@H](S(C)(=N)=O)C4)nc(N4C[C@H]5CC[C@@H](C4)N5)c23)c1C(F)(F)F (stereo partly drawn)" censoring_qualifier=> recorded_measurement=11100

---

# Target Desc: AsPC-1 cells (Homo sapiens, UniProt P01116, G12D)
# Construct: p-ERK/total ERK AlphaSureFire read-out
# Sequence (P01116 1-188 isoform P01116-2 G12D): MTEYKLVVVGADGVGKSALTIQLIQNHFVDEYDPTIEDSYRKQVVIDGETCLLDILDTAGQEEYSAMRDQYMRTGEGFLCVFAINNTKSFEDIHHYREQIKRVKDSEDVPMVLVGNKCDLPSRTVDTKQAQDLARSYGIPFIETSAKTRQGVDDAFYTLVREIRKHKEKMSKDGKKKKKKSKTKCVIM
# Assay Summary: Cellular phospho-ERK assay, AsPC-1 cells (KRAS G12D)
# Reported Conditions: 2 hours, read-out: AsPC1 pERK IC50
Measured Metric: IC50 (nM)

compound=C#Cc1c(F)ccc2cc3[nH]ncc3c(-c3nccc4c3sc3nc(OC[C@]5(CN6CCC7(CC6)CC(Cc6cn(C)nn6)C7)CC5(F)F)nc(N5C[C@H]6CC[C@@H](C5)N6)c34)c12 measured_metric=IC50 units_label=nM censoring_qualifier== recorded_measurement=74
compound="Cc1cc2[nH]ncc2c(-c2nccc3c2sc2nc(OCC4CCCN(S(C)(=O)=O)C4)nc(N4C[C@H]5CC[C@@H](C4)N5)c23)c1C(F)(F)F (some centres unmarked)" measured_metric=IC50 units_label=nM censoring_qualifier=> recorded_measurement=30000
compound=Cc1cc2[nH]ncc2c(-c2nccc3c2sc2nc(OCC45COC(C4)C5)nc(N4C[C@H]5CC[C@@H](C4)N5)c23)c1C(F)(F)F measured_metric=IC50 units_label=nM censoring_qualifier== recorded_measurement=6830
compound="Cc1cc2[nH]ncc2c(-c2nccc3c4c(N5C[C@H]6CC[C@@H](C5)N6)nc(OC[C@@]56CCCN5C[C@H](F)C6)nc4n(C)c23)c1C(F)F (single isomer, unassigned)" measured_metric=IC50 units_label=nM censoring_qualifier== recorded_measurement=965
compound=C#Cc1c(F)ccc2cc3[nH]ncc3c(-c3nccc4c3sc3nc(OC[C@]5(CN6CCC(CCc7cn(C)nn7)CC6)CC5(F)F)nc(N5C[C@H]6CC[C@@H](C5)N6)c34)c12 measured_metric=IC50 units_label=nM censoring_qualifier== recorded_measurement=67
